Value source: BindingDB's records for patent US11091471

target: Gamma-aminobutyric acid receptor subunit gamma-2 / Gamma-aminobutyric acid receptor subunit alpha-5 (Homo sapiens, UniProt P18507+P31644)
Sequence (P18507 40-475 limits assumed): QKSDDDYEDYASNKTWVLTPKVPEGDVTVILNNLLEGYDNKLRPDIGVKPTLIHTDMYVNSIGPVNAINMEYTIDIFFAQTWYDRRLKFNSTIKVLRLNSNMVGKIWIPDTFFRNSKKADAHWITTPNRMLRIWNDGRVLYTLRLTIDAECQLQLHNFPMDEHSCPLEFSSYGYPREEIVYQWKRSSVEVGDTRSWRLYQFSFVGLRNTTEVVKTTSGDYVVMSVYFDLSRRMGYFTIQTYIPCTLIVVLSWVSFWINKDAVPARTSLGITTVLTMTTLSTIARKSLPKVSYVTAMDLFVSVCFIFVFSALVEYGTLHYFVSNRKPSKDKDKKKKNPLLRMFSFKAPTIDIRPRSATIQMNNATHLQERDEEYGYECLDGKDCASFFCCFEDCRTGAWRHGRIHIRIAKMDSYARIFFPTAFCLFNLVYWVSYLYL
Sequence (P31644 32-462 limits assumed): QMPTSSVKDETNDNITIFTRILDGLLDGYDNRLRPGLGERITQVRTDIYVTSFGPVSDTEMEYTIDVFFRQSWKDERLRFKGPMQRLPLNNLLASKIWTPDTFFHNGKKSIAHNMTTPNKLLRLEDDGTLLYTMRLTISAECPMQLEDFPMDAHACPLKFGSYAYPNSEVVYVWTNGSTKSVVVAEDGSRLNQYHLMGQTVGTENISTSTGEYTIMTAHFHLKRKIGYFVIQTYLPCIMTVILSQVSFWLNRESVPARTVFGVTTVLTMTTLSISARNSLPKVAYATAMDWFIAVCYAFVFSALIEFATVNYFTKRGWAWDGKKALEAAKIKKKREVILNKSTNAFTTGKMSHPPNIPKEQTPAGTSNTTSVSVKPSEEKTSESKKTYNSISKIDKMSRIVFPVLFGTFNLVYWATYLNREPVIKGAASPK
measurement protocol: Electrophysiology
measure name: Ki (nM)
Form entry: value (nM) — number only.

Entry Cc1onc(-c2ccc(Cl)nc2)c1COc1ccc(C(=O)N[C@H]2CCOC2)nn1 [US11091471, Example 160] — recorded Ki = 9.3
